Test system: C57/BL6 mice fed MCD diet
EXPERIMENT_DESCRIPTION: Pharmacodynamic test in methionine-choline deficient diet (MCD) model of non-alcoholic fatty liver disease
Assay type: in vivo
TEST_CONDITIONS: MCD mice, liver, after 4 weeks; TM 30 mpk, obeticholic acid 40 mpk
In this section, each of the molecules is paired with its reported liver TG.
REPORTED_ENDPOINT: liver TG (µmol/g protein)

| MOLECULE | MEASURED_VALUE |
| --- | --- |
| CC[C@H]1[C@@H](O)[C@@H]2[C@H](CC[C@]3(C)[C@@H]([C@H](C)CCC(=O)O)CC[C@@H]23)[C@@]2(C)CC[C@@H](O)C[C@@H]12 [obeticholic acid, reference compound] | 298 |
| CC(C)c1onc(-c2c(Cl)cccc2Cl)c1COc1cnc(C2(O)CC(c3cccc(C(=O)O)c3)C2)cn1 (centres unmarked) [TM-06] | 304 |
| O=C(O)c1cccc(N2CC(O)(c3cnc(OCc4c(-c5c(Cl)cccc5Cl)noc4C4CC4)cn3)C2)c1 [TM-02] | 307 |
| Cc1cc(C(=O)O)cc(C2CC(O)(c3cnc(OCc4c(-c5c(Cl)cccc5Cl)noc4C(C)C)cn3)C2)c1 (centres unmarked) [TM-09] | 232 |
| O=C(O)c1cccc(C2CC(O)(c3cnc(OCc4c(-c5c(Cl)cccc5Cl)noc4C4CC4)cn3)C2)c1 (centres unmarked) [TM-01] | 247 |
